The reported numbers originate from ChEMBL document CHEMBL4699593.

assay: Aqueous solubility of compound in phosphate buffer saline at pH 6.5 incubated for 20 hrs under shaking condition by shake-flask method based HPLC-DAD analysis; format: physicochemical; details: phosphate buffered saline
reportedEndpoint: solubility thermodynamic at 20 h (µM)
Field format: number, assumed µM, no unit text.

// lookup solubility thermodynamic at 20 h for "Fc1ccc(-c2nc3c(N4CCCNCC4)nccc3[nH]2)cc1F"
165

Record request: solubility thermodynamic at 20 h value, item "Fc1cc(F)cc(-c2nc3c(N4CCC(CN5CCOCC5)CC4)nccc3[nH]2)c1"
25

I have this compound here, "Fc1ccc(-c2nc3c(N4CCN5CCC4CC5)nccc3[nH]2)cc1F" , and I need its recorded solubility thermodynamic at 20 h.
200

Field request: solubility thermodynamic at 20 h | item: "NCC1CCN(c2nccc3[nH]c(-c4cccc(OC(F)(F)F)c4)nc23)CC1"
200

Data request, read-out solubility thermodynamic at 20 h, for "Cn1ccnc1N1CCN(CC2CCN(c3nccc4[nH]c(-c5cc(F)cc(F)c5)nc34)CC2)CC1"
135

// solubility thermodynamic at 20 h lookup, key: "NC1CCN(c2nccc3[nH]c(-c4cccc(OC(F)(F)F)c4)nc23)CC1"
200

What value of measured solubility thermodynamic at 20 h is listed for "CN1CCN(C2CCN(c3nccc4[nH]c(-c5cccc(S(C)(=O)=O)c5)nc34)CC2)CC1" ?
190

Query (compound): "CN1CCN(C2CCN(c3nccc4[nH]c(-c5ccc(F)c(F)c5)nc34)CC2)CC1" ; field requested: solubility thermodynamic at 20 h
130

Reported solubility thermodynamic at 20 h, compound "CC(C)(C)N1CCN(CC2CCN(c3nccc4[nH]c(-c5cc(F)cc(F)c5)nc34)CC2)CC1" : ____
185

Look at this compound and give its reported solubility thermodynamic at 20 h. "CN1CCN(CC2CCN(c3nccc4[nH]c(-c5ccc(F)c(F)c5)nc34)CC2)CC1"
195

What value of solubility thermodynamic at 20 h has been recorded for this entry: "CN1CCN(C[C@@H]2CCCN(c3nccc4[nH]c(-c5cc(F)cc(F)c5)nc34)C2)CC1"
145

Name the recorded solubility thermodynamic at 20 h for "C[C@@H]1CN(c2nccc3[nH]c(-c4ccc(F)c(F)c4)nc23)C[C@H](C)N1" .
190

Form field: reported solubility thermodynamic at 20 h of "CN1CCC(N2CCCN(c3nccc4[nH]c(-c5ccc(F)c(F)c5)nc34)CC2)CC1"
200

###

assay: AUC (0 to t) in Balb/C mouse at 10 mg/kg, po by LC-MS/MS analysis; format: ADME, organism-based; parameters: dose 10 mg/kg; settings: in vivo
reportedEndpoint: AUCt (µM·h)
Number in µM·h, nothing else.

Which AUCt reading was recorded for the compound "CN1CCN(CC2CCN(c3cncc4[nH]c(-c5cc(F)cc(F)c5)nc34)CC2)CC1" ?
3.57

###

test: Terminal half life in Balb/C mouse at 20 mg/kg, po by LC-MS/MS analysis; type: ADME, organism-based; conditions: in vivo, read-out: beta t1/2 (converted)
Binarize half-life at 10 h; below is criterion met, at or above is criterion not met.

Input "CN1CCC(N2CCN(c3nccc4[nH]c(-c5ccc(F)c(F)c5)nc34)CC2)CC1" ; condition: half-life strictly below 10 h. Does it hold?
criterion not met

# TODO verify half-life < 10 h strictly for this compound: "CN1CCN(CC2CCN(c3nccc4[nH]c(-c5cc(F)cc(F)c5)nc34)CC2)CC1"
criterion not met

Does the reported half-life of the following compound sit strictly below 10 h? "Fc1ccc(-c2nc3c(N4CCC(CN5CCOCC5)CC4)nccc3[nH]2)cc1F"
criterion not met

# TODO verify half-life < 10 h strictly for this compound: "Cn1ccnc1N1CCN(CC2CCN(c3nccc4[nH]c(-c5cc(F)cc(F)c5)nc34)CC2)CC1"
criterion met
